These entries and their values trace back to patent US20130196320A1.

# System tested: T1, ADCY9 meganuclease (I-CreI-derived) (Artificial Sequence)
# T1 chain: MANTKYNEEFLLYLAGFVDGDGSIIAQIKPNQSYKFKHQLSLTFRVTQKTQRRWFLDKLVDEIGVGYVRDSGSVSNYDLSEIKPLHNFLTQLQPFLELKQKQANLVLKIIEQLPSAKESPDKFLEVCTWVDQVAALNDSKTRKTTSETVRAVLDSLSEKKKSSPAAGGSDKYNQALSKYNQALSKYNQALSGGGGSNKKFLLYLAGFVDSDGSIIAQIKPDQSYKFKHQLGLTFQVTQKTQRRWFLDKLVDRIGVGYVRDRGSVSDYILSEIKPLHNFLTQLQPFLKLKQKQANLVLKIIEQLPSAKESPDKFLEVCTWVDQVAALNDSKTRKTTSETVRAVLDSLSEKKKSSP
# Protocol details: FP; apparent Kd, sigmoidal binding; 10 mM CaCl2, 150 mM NaCl, pH8, 25 C
Experimental endpoint: pKd
Remember, pKd is on a log scale: it is -log10 of the molar concentration.

What value of measured pKd is listed for ADCY9.1_Me -3a/-2b (dsDNA, 5mC at -3a, -2b) DNA 1: CCCAGATGTCGTACAGCAGCTTGG DNA 2: CCAAGCTGCTGTACGACATCTGGG ?
6.37
